# Test system: BT-549 breast
# protocolText: NCI tumour cell line growth inhibition, 48 h
Answer Not fulfilled if TGI is under 40 µM, and Fulfilled if it is 40 µM or more.

INSERT INTO assay_data (molecule, system, labelvalue) VALUES
  ('COC(=O)CCC1(O)C=CC(=O)C=C1', 'BT-549 breast', 'Fulfilled'),
  ('Nc1ccccc1C#C/C=C\C#Cc1ccccc1F', 'BT-549 breast', 'Not fulfilled'),
  ('Cc1ccc(-c2c3c(N)c4c(nc3nc3c2c(C)nn3-c2ccccc2)CCC4)cc1', 'BT-549 breast', 'Fulfilled');

Does TGI meet or surpass 40 µM for "CC(=O)/C(=C(/Br)I)c1ccccc1" ?
Not fulfilled

What would you report for "CC(C)(CN)SCc1ccccc1" ?
Fulfilled

What would you report for "Cc1cc(-c2ccc(C(=O)C(c3ccccc3)(c3ccccc3)c3ccccc3)[nH]2)on1" ?
Fulfilled

What would you report for CCCC(CCC)C(=O)OCC1(CO)C/C(=C\c2ccc(C(F)(F)F)cc2)C(=O)O1 (stereo not given) ?
Not fulfilled
